For each entry below, report its IC50 value.
# TARGET DESC: murine AChE (mAChE) (Mus musculus, UniProt P21836)
# METHOD DESCRIPTION: biochemical
# PROTOCOL CONDITIONS: IC50, Ellman assay

1) COc1cc2c3cc1Oc1cc(ccc1O)C[C@@H]1c4c(cc(OC)c(O)c4Oc4ccc(cc4)C[C@@H]3N(C)CC2)CC[N+]1(C)C
50 to 70 µM

Check the records and state IC50 for CC[N+](C)(CC)CCC[n+]1c(-c2ccccc2)c2cc(N)ccc2c2ccc(N)cc21 [Propidium Iodide, propidium iodide] 0.7 µM

----------
# TARGET DESC: murine AChE (mAChE) (Mus musculus, UniProt P21836)
# METHOD DESCRIPTION: biochemical
# Assay type: binding
# PROTOCOL CONDITIONS: read-out: IC50 values (Mean ± SEM), Reduction of TFT Fluorescence; pH 7.4
QUANTITY MEASURED: IC50 (nM)
Numbers only, in nM.

Identify the reported IC50 for the following entry. C=CC[N+](C)(C)c1ccc(CCC(=O)CCc2ccc([N+](C)(C)CC=C)cc2)cc1.[Br-].[Br-] 8.3

----------
# TARGET DESC: murine AChE (mAChE) (Mus musculus)
# Sequence (P21836 32-614): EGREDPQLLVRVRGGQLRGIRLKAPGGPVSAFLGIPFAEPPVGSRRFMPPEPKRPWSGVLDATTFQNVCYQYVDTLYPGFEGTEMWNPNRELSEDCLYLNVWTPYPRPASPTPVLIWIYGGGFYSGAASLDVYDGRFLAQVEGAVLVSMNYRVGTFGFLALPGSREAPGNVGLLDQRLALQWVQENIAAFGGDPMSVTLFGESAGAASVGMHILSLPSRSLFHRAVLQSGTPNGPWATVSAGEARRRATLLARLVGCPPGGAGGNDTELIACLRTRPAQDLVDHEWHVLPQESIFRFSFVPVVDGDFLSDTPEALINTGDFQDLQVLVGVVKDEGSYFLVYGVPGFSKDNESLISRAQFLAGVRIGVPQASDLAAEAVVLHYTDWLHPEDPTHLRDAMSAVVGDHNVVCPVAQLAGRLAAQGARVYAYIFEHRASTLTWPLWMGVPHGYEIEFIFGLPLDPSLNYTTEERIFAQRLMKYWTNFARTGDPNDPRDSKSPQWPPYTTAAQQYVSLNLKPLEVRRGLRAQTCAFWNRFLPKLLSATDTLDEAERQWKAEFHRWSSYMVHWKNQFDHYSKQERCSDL
QUANTITY MEASURED: Kd (µM)
Answers are plain numbers, in µM.

Fill in reported Kd for this entry: Cc1ccc2c(c1)sc(-c1ccc(N(C)C)cc1)[n+]2C 1.4

----------
# TARGET DESC: murine AChE (mAChE) (Mus musculus, UniProt P21836)
# METHOD DESCRIPTION: biochemical
# PROTOCOL CONDITIONS: read-out: IC50 values (Mean ± SEM), Reduction of AChE activity; pH 7.4
QUANTITY MEASURED: IC50
Show the value, then the unit it is measured in.

Please give measured IC50 of the following entry: C=CC[N+](C)(C)c1ccc(CCC(=O)CCc2ccc([N+](C)(C)CC=C)cc2)cc1.[Br-].[Br-] 4.4 nM

----------
# TARGET DESC: murine AChE (mAChE) (Mus musculus)
# METHOD DESCRIPTION: biochemical
# Assay type: binding
# PROTOCOL CONDITIONS: IC50 values (Mean ± SEM), Reduction of TFT Fluorescence
Answer each item with its documented pIC50.
Answers are plain numbers, as −log10 of the molar value.

1. CNC(=O)O/N=C/C(C)(C)SC [Aldicarb, aldicarb]
6.25
2. CNC(=O)Oc1cccc2c1OC(C)(C)O2 [Bendiocarb, bendiocarb]
7.70
3. Cc1nc(N(C)C)nc(OC(=O)N(C)C)c1C [Pirimicarb, pirimicarb]
6.34
4. CC[n+]1c(-c2ccccc2)c2cc(N)ccc2c2ccc(N)cc21 [Ethidium Bromide, ethidium bromide]
4.80
5. CNC(=O)Oc1ccccc1OC(C)C [Propoxur, propoxur]
7.22

Now examine the next entry.
Determine its reported pIC50: CC[N+](C)(C)c1cccc(O)c1 [Edrophonium, edrophonium] 5.95
